meta.source: patent US20250250357A1

# ASSAYED_SYSTEM: T1, human MSLN-FL-his protein (human, UniProt Q13421 296-580)
# T1 construct: Made in HEK293E cells, purified on nickel column; also called hMSLN-FL-his; human MSLN full-length protein; not shown: His tag
# T1 sequence (Q13421 other isoform, or with tags, fused parts or gaps): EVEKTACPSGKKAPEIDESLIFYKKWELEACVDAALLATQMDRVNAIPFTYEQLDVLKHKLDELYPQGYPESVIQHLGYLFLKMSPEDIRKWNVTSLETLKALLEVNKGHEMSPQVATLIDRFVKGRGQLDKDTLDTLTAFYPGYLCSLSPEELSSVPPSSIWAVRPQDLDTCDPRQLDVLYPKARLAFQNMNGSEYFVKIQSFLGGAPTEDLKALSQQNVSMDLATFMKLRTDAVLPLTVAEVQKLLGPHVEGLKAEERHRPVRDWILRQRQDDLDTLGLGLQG
# ASSAY_DETAILS: ELISA, coated antigen, antibody 0.02 nM
# OD450 annotations
Please reply with the number alone, leaving off any unit.

[
  {
    "BINDER": "S009-F7.11.11 chimeric antibody (antibody, human IgG1, kappa, V domains shown, Human-murine chimeric antibody, human IgG1/kappa constant regions) VH: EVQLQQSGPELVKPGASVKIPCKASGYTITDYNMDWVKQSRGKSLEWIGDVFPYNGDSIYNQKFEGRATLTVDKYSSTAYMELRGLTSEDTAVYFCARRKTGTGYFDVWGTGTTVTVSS VL: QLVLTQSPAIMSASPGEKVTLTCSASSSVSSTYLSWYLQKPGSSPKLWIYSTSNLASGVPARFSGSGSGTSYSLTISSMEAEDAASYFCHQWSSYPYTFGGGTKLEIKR",
    "READOUT_TYPE": "OD450",
    "RESULT": 0.41
  },
  {
    "BINDER": "S009-F7.53.2 chimeric antibody (antibody, human IgG1, kappa, V domains shown, Human-murine chimeric antibody, human IgG1/kappa constant regions) VH: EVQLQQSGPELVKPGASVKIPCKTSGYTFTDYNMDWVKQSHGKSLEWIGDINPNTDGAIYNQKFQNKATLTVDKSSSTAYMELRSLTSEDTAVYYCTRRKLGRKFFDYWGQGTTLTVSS VL: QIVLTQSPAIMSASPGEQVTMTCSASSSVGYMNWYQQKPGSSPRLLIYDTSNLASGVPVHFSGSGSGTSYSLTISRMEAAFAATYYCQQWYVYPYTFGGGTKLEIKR",
    "READOUT_TYPE": "OD450",
    "RESULT": 0.47
  },
  {
    "BINDER": "S009-F7.48.1 chimeric antibody (antibody, human IgG1, kappa, V domains shown, Human-murine chimeric antibody, human IgG1/kappa constant regions) VH: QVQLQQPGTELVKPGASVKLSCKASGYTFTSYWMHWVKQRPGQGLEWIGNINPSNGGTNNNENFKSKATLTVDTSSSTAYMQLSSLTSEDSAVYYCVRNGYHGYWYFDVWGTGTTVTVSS VL: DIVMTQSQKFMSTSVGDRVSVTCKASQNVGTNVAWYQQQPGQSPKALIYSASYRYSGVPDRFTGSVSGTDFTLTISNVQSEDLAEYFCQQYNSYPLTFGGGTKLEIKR",
    "READOUT_TYPE": "OD450",
    "RESULT": 0.86
  }
]

Could you tell me which OD450 is on file for S009-F7.23.19 chimeric antibody (antibody, human IgG1, kappa, V domains shown, Human-murine chimeric antibody, human IgG1/kappa constant regions) VH: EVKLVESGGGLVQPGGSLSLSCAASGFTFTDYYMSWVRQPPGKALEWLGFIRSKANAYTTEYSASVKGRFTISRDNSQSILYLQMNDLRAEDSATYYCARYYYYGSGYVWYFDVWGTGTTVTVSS VL: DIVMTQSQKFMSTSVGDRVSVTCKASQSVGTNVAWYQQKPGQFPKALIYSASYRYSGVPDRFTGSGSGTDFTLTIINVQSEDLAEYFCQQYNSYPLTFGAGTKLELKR ?
1.32

// OD450 lookup, key: S009-F7.69.8 chimeric antibody (antibody, human IgG1, kappa, V domains shown, Human-murine chimeric antibody, human IgG1/kappa constant regions) VH: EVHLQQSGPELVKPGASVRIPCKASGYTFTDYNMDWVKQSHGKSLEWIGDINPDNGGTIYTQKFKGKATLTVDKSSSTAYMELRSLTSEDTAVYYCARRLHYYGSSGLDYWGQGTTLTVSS VL: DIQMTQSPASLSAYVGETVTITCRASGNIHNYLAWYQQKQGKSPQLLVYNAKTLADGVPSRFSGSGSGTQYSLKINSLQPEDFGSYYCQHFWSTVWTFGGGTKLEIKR
1.42

Need OD450, item S009-F7.26.15 chimeric antibody (antibody, human IgG1, kappa, V domains shown, Human-murine chimeric antibody, human IgG1/kappa constant regions) VH: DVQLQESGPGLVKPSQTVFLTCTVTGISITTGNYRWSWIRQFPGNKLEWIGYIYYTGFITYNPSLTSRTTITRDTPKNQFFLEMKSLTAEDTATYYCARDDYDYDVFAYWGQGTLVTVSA VL: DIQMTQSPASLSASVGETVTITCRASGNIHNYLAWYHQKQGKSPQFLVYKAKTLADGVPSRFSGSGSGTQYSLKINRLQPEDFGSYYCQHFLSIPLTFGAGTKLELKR
1.76

Can you share its OD450? I mean this binder: S009-F7.25.19 chimeric antibody (antibody, human IgG1, kappa, V domains shown, Human-murine chimeric antibody, human IgG1/kappa constant regions) VH: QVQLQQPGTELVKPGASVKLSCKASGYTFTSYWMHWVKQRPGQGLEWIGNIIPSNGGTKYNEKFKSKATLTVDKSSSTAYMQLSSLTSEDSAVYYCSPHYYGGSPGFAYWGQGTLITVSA VL: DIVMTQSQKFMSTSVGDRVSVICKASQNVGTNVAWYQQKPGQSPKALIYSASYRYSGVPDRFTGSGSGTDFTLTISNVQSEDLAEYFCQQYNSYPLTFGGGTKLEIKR
1.9

Which OD450 value belongs to S009-F7.66.12 chimeric antibody (antibody, human IgG1, kappa, V domains shown, Human-murine chimeric antibody, human IgG1/kappa constant regions) VH: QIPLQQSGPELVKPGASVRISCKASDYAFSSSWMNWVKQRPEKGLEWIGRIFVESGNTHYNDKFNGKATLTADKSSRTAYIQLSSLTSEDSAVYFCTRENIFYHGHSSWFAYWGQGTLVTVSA VL: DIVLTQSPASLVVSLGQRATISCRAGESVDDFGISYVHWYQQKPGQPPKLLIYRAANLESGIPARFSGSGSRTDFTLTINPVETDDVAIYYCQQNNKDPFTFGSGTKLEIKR ?
1.77

Looking for the measured OD450 of S009-F7.33.24 chimeric antibody (antibody, human IgG1, kappa, V domains shown, Human-murine chimeric antibody, human IgG1/kappa constant regions) VH: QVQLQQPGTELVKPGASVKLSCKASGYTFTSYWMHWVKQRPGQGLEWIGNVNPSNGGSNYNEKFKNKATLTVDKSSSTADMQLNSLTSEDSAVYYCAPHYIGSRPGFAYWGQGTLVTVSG VL: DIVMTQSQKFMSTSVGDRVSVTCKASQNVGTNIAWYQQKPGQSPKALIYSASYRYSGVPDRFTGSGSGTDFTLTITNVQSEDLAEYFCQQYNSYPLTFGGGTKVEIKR , can you help?
2.01

If you can, please state the reported OD450 value of S009-F7.18.10 chimeric antibody (antibody, human IgG1, kappa, V domains shown, Human-murine chimeric antibody, human IgG1/kappa constant regions) VH: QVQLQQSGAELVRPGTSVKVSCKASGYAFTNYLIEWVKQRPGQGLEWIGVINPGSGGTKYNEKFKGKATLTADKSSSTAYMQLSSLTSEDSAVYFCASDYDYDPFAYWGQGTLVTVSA VL: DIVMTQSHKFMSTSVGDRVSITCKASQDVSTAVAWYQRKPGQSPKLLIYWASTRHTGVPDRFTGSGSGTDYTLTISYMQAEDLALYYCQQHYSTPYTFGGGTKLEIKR .
1.91
